Tested on: Pseudomonas aeruginosa
Assay: Antimicrobial activity against Pseudomonas aeruginosa after 24 hrs by two fold serial dilution method
Assay type: functional
Calls of active or inactive are those of the source. The rule behind the calls is not given here.
Reported metric: Activity

{"columns": ["Molecular string", "System tested", "Reported metric", "Value observed"],
 "data": [
  ["CCCCCCCCCCN1CCN(c2ccc3c4c(cccc24)C(=O)N(Nc2nccs2)C3=O)CC1", "Pseudomonas aeruginosa", "Activity", "inactive"],
  ["CCCCCCCCCCCCN1CCN(c2ccc3c4c(cccc24)C(=O)N(Nc2nccs2)C3=O)CC1", "Pseudomonas aeruginosa", "Activity", "inactive"],
  ["CCCCCCCCCCCCCCCCN1CCN(c2ccc3c4c(cccc24)C(=O)N(Nc2nccs2)C3=O)CC1", "Pseudomonas aeruginosa", "Activity", "inactive"]
]}

====

Tested on: Staphylococcus aureus
Assay: Antimicrobial activity against Staphylococcus aureus after 24 hrs by two fold serial dilution method
Assay type: functional, organism-based
Activity calls are given as the source filed them. The rule behind the calls is not given here.

{"columns": ["Molecular string", "Activity"],
 "data": [
  ["CCCCCCCCCCCCN1CCN(c2ccc3c4c(cccc24)C(=O)N(Nc2nccs2)C3=O)CC1", "inactive"],
  ["CCCCCCCCCCCCCCCCN1CCN(c2ccc3c4c(cccc24)C(=O)N(Nc2nccs2)C3=O)CC1", "inactive"],
  ["CCCCCCCCCCN1CCN(c2ccc3c4c(cccc24)C(=O)N(Nc2nccs2)C3=O)CC1", "inactive"]
]}
